Measured values drawn from the supplement of paper PMC10567573 for this set.

What protein stability index was measured for each of the following?
B1: MTMR15 (parent)
chain: FSPDFTLRNTLKSTSEDSLVKQEC

variants of: B1; assay: protein stability index of a GFP-peptide fusion (GPS, HEK-293T) (PSI 1-6); higher = more stable; conditions: c terminus: a fixed tail appended;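 further: lentivirally expressed fusions sorted by FACS into six bins by GFP to DsRed ratio, PSI derived from sequencing read proportions per bin multiplied by bin number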
One number for each entry.

Examples with their reported protein stability index follow.
# chain.sequence, protein stability index
records = [
    ("FSPDHTLRNTLKSTSEDSLVKQEC [F5H]", 3.52),
    ("FSPDFTLRNTLKSTSEDSLVCQEC [K21C]", 2.69),
    ("FSPDFTLRNTLKSTSEDHLVKQEC [S18H]", 1.92),
    ("FSPDFTLRDTLKSTSEDSLVKQEC [N9D]", 1.54),
    ("FSPDDTLRNTLKSTSEDSLVKQEC [F5D]", 4.35),
]

Give protein stability index for each of the items listed below.
1. FSPDFTLRNTLKSTSEDSIVKQEC [L19I]
2. FSPDFTLRNTLKSTSEDSLVKQED [C24D]
3. FSPDFTLRNTLKFTSEDSLVKQEC [S13F]
4. FSPDFTLRNTLQSTSEDSLVKQEC [K12Q]
5. FSPDFTLRNTLKSTSEDSLVMQEC [K21M]
6. FSPDFTLRNDLKSTSEDSLVKQEC [T10D]
7. FSPQFTLRNTLKSTSEDSLVKQEC [D4Q]

stdout:
2.5
2.59
2.13
1.92
2.86
1.99
1.45

Working through the 4 variants below one at a time, give protein stability index for each.
1. FSPDFRLRNTLKSTSEDSLVKQEC [T6R]
2. FSPDFTLRNTLKSTSESSLVKQEC [D17S]
3. FSPDFTLENTLKSTSEDSLVKQEC [R8E]
4. FSPDFTLRNTLKRTSEDSLVKQEC [S13R]

stdout:
[1.77, 1.45, 3.28, 3.03]

Go through the items and report each one's protein stability index.
1. FAPDFTLRNTLKSTSEDSLVKQEC [S2A]
2. FSPDFTLRTTLKSTSEDSLVKQEC [N9T]
3. FSTDFTLRNTLKSTSEDSLVKQEC [P3T]
4. FSPDFTRRNTLKSTSEDSLVKQEC [L7R]
5. FSPDFTLRITLKSTSEDSLVKQEC [N9I]
6. FSPDFTLRNTRKSTSEDSLVKQEC [L11R]
7. FSPDFTLRNTWKSTSEDSLVKQEC [L11W]

stdout:
1. 2.08
2. 2.09
3. 2.76
4. 2.56
5. 2.41
6. 1.81
7. 1.81

Items follow; give protein stability index for each.
1. PSPDFTLRNTLKSTSEDSLVKQEC [F1P]
2. FNPDFTLRNTLKSTSEDSLVKQEC [S2N]
3. FSQDFTLRNTLKSTSEDSLVKQEC [P3Q]
4. FSPDFTLRWTLKSTSEDSLVKQEC [N9W]
5. FSPDFTLRNTLKSTSEDSEVKQEC [L19E]
6. FSPDFTSRNTLKSTSEDSLVKQEC [L7S]

stdout:
1. 5.1
2. 3.68
3. 2.83
4. 2.62
5. 2.1
6. 2.08

I need protein stability index for every entry listed below, if you could help.
1. FKPDFTLRNTLKSTSEDSLVKQEC [S2K]
2. FSPDFTLRNTKKSTSEDSLVKQEC [L11K]

stdout:
4.27
2

Dear colleague, could you please provide protein stability index for the variants listed below?
1. FSPDFTLRNTVKSTSEDSLVKQEC [L11V]
2. FSPDFTLRNTLKSTSEDSLRKQEC [V20R]
3. FSPDFTLRNTLKSTSEDQLVKQEC [S18Q]

stdout:
1: 2.26; 2: 2.21; 3: 2.01
